I'd appreciate it if you could supply Kd values for the items below.
- procedure-text: Calibration of free NIR probe/sensor by bilirubin titration (cuvette fluorometry, fit with equation 1)
- Assay type: binding
- measurement-parameters: effect of fluorophore (cysteine) position; responder probe labeled with 700DX-maleimide
Response body: numeric value in nM, unit text excluded.

Reported Kd for 30C-C2XH11-700DXM: rIFABP mutein MGI-KR14-14R 18L 27A 30C 38V 60R 73F 106L 115R 117D 131D-C2XH11 labeled with LICOR 700DX-maleimide (protein, C2XH11 tag; LICOR 700DX-maleimide label; mutated bf sensitive probe, rIFABP mutein MGI-KR14-14R 18L 27A 30C 38V 60R 73F 106L 115R 117D 131D-C2XH11 labeled with LICOR 700DX-maleimide) MGIAFDGTWRVDRNENRERFLERMGINVVARRCGAHDNLRVTITQEGNRFTVRESSNFRNIDRVFELGVDFAYSLFDGTELTGTWTMEGNRLVGRFRRVDNGRELIAVLEISGNELIRTDTYEGVEARRIFRRDRGAASHHHHHHSHRATPNTSPHHHHHHH : what is it? 41

And the next one, 97C-C2XH11-700DXM: rIFABP mutein MGI-KR14-14R 18L 27A 38V 60R 73F 97C 106L 115R 117D 131D-C2XH11 labeled with LICOR 700DX-maleimide (protein, LICOR 700DX-maleimide label; mutated bf sensitive probe, rIFABP mutein MGI-KR14-14R 18L 27A 38V 60R 73F 97C 106L 115R 117D 131D-C2XH11 labeled with LICOR 700DX-maleimide) MGIAFDGTWRVDRNENRERFLERMGINVVARRLGAHDNLRVTITQEGNRFTVRESSNFRNIDRVFELGVDFAYSLFDGTELTGTWTMEGNRLVGRFRRVCNGRELIAVLEISGNELIRTDTYEGVEARRIFRRDRGAASHHHHHHSHRATPNTSPHHHHHHH ? 25

And the next one, 24C- C2XH11-700DXM: rIFABP mutein MGI-KR14-14R 18L 24C 27A 38V 60R 73F 106L 115R 117D 131D-C2XH11 labeled with LICOR 700DX-maleimide (protein, C2XH11 tag; LICOR 700DX-maleimide label; mutated bf sensitive probe, rIFABP mutein MGI-KR14-14R 18L 24C 27A 38V 60R 73F 106L 115R 117D 131D-C2XH11 labeled with LICOR 700DX-maleimide) MGIAFDGTWRVDRNENRERFLERMGICVVARRLGAHDNLRVTITQEGNRFTVRESSNFRNIDRVFELGVDFAYSLFDGTELTGTWTMEGNRLVGRFRRVDNGRELIAVLEISGNELIRTDTYEGVEARRIFRRDRGAASHHHHHHSHRATPNTSPHHHHHHH ? 44
